- test system: human ALX receptor (Homo sapiens, UniProt P25090)
- Sequence (P25090 whole entry): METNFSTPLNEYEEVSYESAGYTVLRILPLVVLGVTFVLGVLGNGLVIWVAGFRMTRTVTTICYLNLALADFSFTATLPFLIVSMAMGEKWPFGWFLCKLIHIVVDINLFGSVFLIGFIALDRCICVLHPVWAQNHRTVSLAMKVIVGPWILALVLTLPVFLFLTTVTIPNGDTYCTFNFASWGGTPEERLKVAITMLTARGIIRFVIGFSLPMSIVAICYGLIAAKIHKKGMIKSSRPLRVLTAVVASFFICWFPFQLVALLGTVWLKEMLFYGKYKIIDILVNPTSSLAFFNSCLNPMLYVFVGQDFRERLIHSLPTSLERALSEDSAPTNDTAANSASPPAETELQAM
- test protocol: Intracellular calcium measurements (FLIPR), agonistic activity in HEK293-hALXR-Gα16 cells
- setup conditions: Fluo-4 calcium FLIPR, normalized to WKYMVm 10 nM
So I've got a bunch of compounds here, and I need their EC50 values.
Answers are plain numbers, in nM.

Below, each entry is followed by its recorded EC50 result.
>>> measurement("O=C(NCC1CCCCN1)[C@H]1[C@H](C(=O)Nc2ncc(Br)s2)[C@@H]2CC[C@H]1C21CC1 (stereo partly shown)")
2.1
>>> measurement("CC(C)(CN)CNC(=O)[C@H]1[C@H](C(=O)Nc2ccc(Br)cc2)[C@@H]2C=C[C@H]1C21CC1 (racemic)")
0.98

Attention now turns to another entry.
Entry O=C(NCCCCN1CCCC1)[C@H]1[C@H](C(=O)Nc2cccc3nonc23)[C@@H]2C=C[C@H]1C21CC1 (racemic) needs its EC50 filled in; supply it.
9120

----------
So I've got a bunch of compounds here, and I need their log10 EC50 values.
- test system: human FPRL2 (Homo sapiens, UniProt P25089)
- Sequence (P25089 1-353): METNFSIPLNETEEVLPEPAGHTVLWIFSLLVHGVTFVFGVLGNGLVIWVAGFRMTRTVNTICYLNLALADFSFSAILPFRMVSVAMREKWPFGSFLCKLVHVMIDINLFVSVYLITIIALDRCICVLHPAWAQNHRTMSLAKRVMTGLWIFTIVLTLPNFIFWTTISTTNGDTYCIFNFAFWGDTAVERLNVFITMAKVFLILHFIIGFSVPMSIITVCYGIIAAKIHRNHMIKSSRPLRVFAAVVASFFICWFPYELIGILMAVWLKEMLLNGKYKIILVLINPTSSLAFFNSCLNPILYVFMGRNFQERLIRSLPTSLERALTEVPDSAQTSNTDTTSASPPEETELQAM
- test protocol: Intracellular calcium measurements (FLIPR), agonistic activity in HEK293-hFPRL2-Gα16 cells
- setup conditions: Fluo-4 calcium FLIPR, normalized to GLY14-Humanin 100 nM
Lab note - EC50 converted to log10 from values in nM.

>>> measurement("O=C(NCCCCN1CCCC1)[C@H]1[C@H](C(=O)Nc2cnc(Cl)nc2)[C@@H]2C=C[C@H]1C21CC1 (racemic) [Example 142]")
2.26
>>> measurement("Cn1c(CCC(=O)NC[C@H]2[C@H](C(=O)Nc3ccc(Br)cc3)[C@@H]3C=C[C@H]2C32CC2)nc2ccccc21 (racemic) [Example 185]")
2.85
>>> measurement("NC(=O)CCNC(=O)[C@H]1[C@H](C(=O)Nc2ccc(Br)cc2)[C@@H]2C=C[C@H]1C21CC1 [Example 13]")
3.66

Hi, could you look up log10 EC50 for each item in my list?
1. NCc1cccc(CNC(=O)[C@H]2[C@H](C(=O)Nc3ccc(Br)cc3)[C@@H]3C=C[C@H]2C32CC2)c1 (racemic) [Example 7]
2. O=C(NCC1CCCNC1)[C@H]1[C@H](C(=O)Nc2ncc(Br)s2)[C@@H]2CC[C@H]1C21CC1 (some centres unmarked) [Example 418]
3. CC(=O)c1csc(CNC(=O)[C@H]2[C@H](C(=O)NCCCc3nc4ccccc4[nH]3)[C@H]3C=C[C@@H]2C32CC2)n1 (racemic) [Example 247]
4. O=C(CCCN1CCCC1)NC[C@H]1[C@H](C(=O)Nc2ccc(Br)cc2)[C@@H]2C=C[C@H]1C21CC1 (racemic) [Example 177]

1: 2.62; 2: 2.53; 3: 3.03; 4: 2.65
